conditions: in 1,2-dichloroethane, 310.45 K

| molecule | solubility (mole fraction) |
| --- | --- |
| CSc1cccc(Nc2ccccc2)c1 | 0.415 |

====

conditions: in acetone, 300.35 K

| molecule | solubility (mole fraction) |
| --- | --- |
| CSc1cccc(Nc2ccccc2)c1 | 0.381 |

====

details: in chloroform, 319.8 K
property: solubility (mole fraction)

| molecule | experimental.value |
| --- | --- |
| COc1cccc(Nc2ccccc2)c1 | 0.424 |

====

details: in ethyl acetate, 311.25 K
property: solubility (mole fraction)

| molecule | property | experimental.value |
| --- | --- | --- |
| COc1cccc(Nc2ccccc2)c1 | solubility (mole fraction) | 0.366 |
| CSc1cccc(Nc2ccccc2)c1 | solubility (mole fraction) | 0.452 |
